Source: patent US7556930B2

Target: full length human CD39L3 (Homo sapiens)
Construct: Cells were transiently transfected with the full length human CD39L3 clone; expressed in transfected cells; host or cells: HEK293 cells, transiently transfected; frozen and thawed intact cells
Sequence (O75355 whole entry A496V): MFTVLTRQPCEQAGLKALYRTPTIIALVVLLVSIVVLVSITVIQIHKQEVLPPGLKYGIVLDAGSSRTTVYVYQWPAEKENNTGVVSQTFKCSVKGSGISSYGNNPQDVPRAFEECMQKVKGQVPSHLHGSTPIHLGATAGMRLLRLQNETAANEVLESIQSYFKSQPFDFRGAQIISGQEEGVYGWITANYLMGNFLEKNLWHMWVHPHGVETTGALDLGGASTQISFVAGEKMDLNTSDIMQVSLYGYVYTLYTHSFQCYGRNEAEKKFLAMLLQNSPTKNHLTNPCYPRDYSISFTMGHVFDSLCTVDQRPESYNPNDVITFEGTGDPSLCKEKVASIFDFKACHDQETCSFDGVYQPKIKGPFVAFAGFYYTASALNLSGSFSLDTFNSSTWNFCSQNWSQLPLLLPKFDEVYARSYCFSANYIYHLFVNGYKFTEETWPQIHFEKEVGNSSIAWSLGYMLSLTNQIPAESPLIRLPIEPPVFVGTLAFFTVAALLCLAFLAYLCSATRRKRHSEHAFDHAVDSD
Assay: Piper Phosphate Assay of CD39L3 nucleotide hydrolysis activity in transiently transfected HEK293 cells
Type: biochemical
Settings: 65 uM ATP+5 mM MgCl2; HEK293 cells transiently transfected with full length human CD39L3; read-out: IC50, inhibition of CD39L3
measurement label: pIC50
Give bare numbers, as −log10 of the molar value.

// pIC50 lookup, compound = CCN(CC)c1ncnc2c1ncn2[C@@H]1O[C@H](COP(=O)(O)OP(=O)(O)C(Br)(Br)P(=O)(O)O)[C@@H](O)[C@H]1O [ARL 67156] , result: 4.23
